# Ki values compiled below
Target Under Test: 5-hydroxytryptamine receptor 7 (Homo sapiens, UniProt P34969)
Sequence (P34969 whole entry): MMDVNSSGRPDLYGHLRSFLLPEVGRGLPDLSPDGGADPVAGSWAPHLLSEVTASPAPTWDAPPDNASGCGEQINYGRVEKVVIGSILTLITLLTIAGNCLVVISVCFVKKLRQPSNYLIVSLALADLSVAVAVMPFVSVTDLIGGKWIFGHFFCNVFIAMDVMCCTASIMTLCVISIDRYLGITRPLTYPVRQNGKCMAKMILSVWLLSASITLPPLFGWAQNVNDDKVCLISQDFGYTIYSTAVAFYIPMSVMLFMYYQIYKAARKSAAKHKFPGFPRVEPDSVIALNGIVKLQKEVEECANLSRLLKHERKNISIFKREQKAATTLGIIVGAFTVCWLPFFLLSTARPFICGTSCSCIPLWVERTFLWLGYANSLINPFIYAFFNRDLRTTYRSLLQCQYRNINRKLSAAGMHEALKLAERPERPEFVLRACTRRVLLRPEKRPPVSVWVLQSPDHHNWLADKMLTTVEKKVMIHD
Assay Method Text: Displacement of [3H]5-HT from human 5-HT7 receptor expressed in HEK293 cells after 30 mins by microbeta counting analysis
Type: cell-based
Just the number in nM, nothing appended.

Oc1cccc(CCCCN2CCN(c3ccccc3)CC2)c1 :: 3.1
CN(CCCN1CCN(c2ccc3ccccc3c2)CC1)c1cccc(O)c1 :: 434
COC(=O)c1cccc(NCCCN2CCN(c3ccccc3)CC2)c1 :: 77.9

Q. Look up Ki: `CN(CCCCCCN1CCN(c2cccc3ccccc23)CC1)c1cccc(O)c1`
A. 39.4

Q. Quick check: Ki of `Oc1cccc(CCCN2CCN(c3ccccc3)CC2)c1` ?
A. 40

Q. Could you share which Ki value was measured for `CN(CCCN1CCN(c2ccccc2)CC1)c1cccc(F)c1` ?
A. 112

Q. Look up Ki: `CCc1[nH]c2ccc(O)cc2c1CCN1CCN(c2cccc3ccccc23)CC1`
A. 6.6

Q. Which Ki value belongs to `CN(CCCCCCN1CCN(c2ccccc2)CC1)c1cccc(O)c1` ?
A. 12

Q. Please report the recorded Ki for `O=S(=O)(c1ccccc1)N(CCCN1CCN(c2ccccc2)CC1)c1cccc(O)c1` .
A. 12.1

Q. Fill in: Ki of `CN(CCCCCN1CCN(c2ccccc2)CC1)c1cccc(O)c1` is ___
A. 16.7
